From: patent EP2689855B1

# TEST SUMMARY: Water solubility measurement of micronized Pterostilbene
# Format: physicochemical
# RUN CONDITIONS: thermodynamic from solid, before micronization
EXPERIMENTAL ENDPOINT: solubility (µg/mL)
Expressed in µg/mL, but write only the number.

Measured solubility of `COc1cc(/C=C/c2ccc(O)cc2)cc(OC)c1` : 23

###

# TEST SUMMARY: Water solubility measurement of micronized Pterostilbene
# Type: physicochemical
# RUN CONDITIONS: thermodynamic from solid, after seven repeated processes of micronization, blades of present invention (Figure 7)
# Experimental: 1.00 kg of Pterostilbene (98% purity, Organic Herb, China) 50 µm of crystalline particles as model substance were subjected to micronization from present invention with additional maintaining of low temperature (20 °C) of substance via slow liquid nitrogen stream flow addition through neck feeder. In this preparation discs with blades in the shape of cubes and extruded triangles were used (Figure 7) , according to the present invention. […]
EXPERIMENTAL ENDPOINT: solubility (µg/mL)
Response body: numeric value in µg/mL, unit text excluded.

Quick note, solubility for `COc1cc(/C=C/c2ccc(O)cc2)cc(OC)c1` landed at 128
